Molecular target: human recombinant COX-2 (Homo sapiens, UniProt P35354)
Construct: purchased 560131
Sequence (P35354 18-604): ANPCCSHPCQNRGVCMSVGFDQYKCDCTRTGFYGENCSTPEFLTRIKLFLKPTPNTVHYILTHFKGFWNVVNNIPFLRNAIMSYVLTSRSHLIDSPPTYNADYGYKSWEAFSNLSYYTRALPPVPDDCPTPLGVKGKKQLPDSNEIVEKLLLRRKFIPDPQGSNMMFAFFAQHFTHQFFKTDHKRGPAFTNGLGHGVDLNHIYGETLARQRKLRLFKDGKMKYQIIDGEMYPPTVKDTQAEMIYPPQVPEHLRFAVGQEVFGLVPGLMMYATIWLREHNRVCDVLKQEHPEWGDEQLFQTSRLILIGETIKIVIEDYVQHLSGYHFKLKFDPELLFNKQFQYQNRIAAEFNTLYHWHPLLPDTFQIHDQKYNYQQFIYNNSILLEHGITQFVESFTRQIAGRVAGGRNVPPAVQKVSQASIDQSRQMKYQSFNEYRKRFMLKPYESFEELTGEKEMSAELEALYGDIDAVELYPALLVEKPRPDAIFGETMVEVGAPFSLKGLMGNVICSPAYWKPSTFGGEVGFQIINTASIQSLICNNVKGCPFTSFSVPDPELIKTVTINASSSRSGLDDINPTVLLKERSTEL
Experiment: biochemical
Type: biochemical
MEASUREMENT_NAME: SI(COX-1/COX-2)
Reply briefly: the number, and no unit.

SI(COX-1/COX-2) in this record for CC1=CCC[C@@]2(C)CC[C@@H]3C[C@]12OC3(C)C [Compound 3, α-agarofuran] : 66.82

Query CC1(C)OC23CC1CCC2(C)CCC(O)C3(C)O (stereo not drawn) [Compound 4, 3α,4α-dihydroxydihydro-β-agarofuran] yields SI(COX-1/COX-2) of 37.39

Field SI(COX-1/COX-2) (entry CC(=O)O[C@H]1CC[C@](C)(O)[C@]23OC(C)(C)[C@H](C[C@H](OC(=O)c4ccoc4)[C@]12C)[C@H]3OC(=O)c1ccoc1 [Compound 8] ) reads 264.75
